# experimental protocol: physchem
# experimental parameters: pH 7.4

# compound, unit abbreviation, solubility
records = [
    ("CCCCCCCCn1cc(CN2CCC3(CC2)OCCCS3)c2ccc(OC)cc21 [Compound 13]", "µM", 30.9),
    ("CCCCCCCCn1cc(CN2CCC3(CC2)OCCO3)c2ccc(OC)cc21 [Compound 1]", "µM", 23.9),
]

---

# System: human red blood cells
# experimental protocol: Compound-induced hemolysis of human red blood cells
# experimental parameters: hemolyze 50% of human RBCs vs 2% Triton X-100

# record smiles, HC50 [µM]
data = [
    ("CCCCCCCCn1cc(CN2CCC3(CC2)OCCO3)c2ccc(OC)cc21", 75),
    ("CCCCCCCCn1cc(CN2CCC3(CC2)OC[C@H](C)O3)c2ccc(OC)cc21", 51),
    ("CCCCCCCCn1cc(CN2CCC3(CC2)OC[C@@H](C)O3)c2ccc(OC)cc21", 75),
    ("CCCCCCCCn1cc(CN2CCC3(CC2)OCCCO3)c2ccc(OC)cc21", 64),
]

All figures here come from paper PMC6043372.
